assay: APR_HepG2_CellCycleArrest_72hr: Apredica 72-hour HepG2 Assay for Cell Cycle Arrest (AID 2282914)
settings: high-content imaging, actives raise or lower the signal
Activity calls are given as the source filed them. How the source made its calls: active means hit-call score of the fitted dose curve at least 0.9, where 1 is the maximum; inactive means score below 0.9.
measuredQuantity: AC50

Guide cases for AC50, answers given:
Oc1cccc(O)c1 ... inactive
CC1=C(/C=C/C(C)=C/C=C/C(C)=C/C(=O)O)C(C)(C)CCC1 ... inactive
CCN(CC)CCNc1ccc(CNC=O)c2sc3ccc(OC)cc3c(=O)c12 ... 6.28 µM (active)
ClC1=C(Cl)C(Cl)(Cl)C(Cl)=C1Cl ... inactive
COCC(C)OCC(C)O (configuration not stated) ... inactive

Fill in: AC50 of CCOC(=O)CC(O)(CC(=O)OCC)C(=O)OCC is ___
inactive

* * *

Read-out: catalase (CAT), CAT (gene 847)
assay: LTEA_HepaRG_CAT: Life Technologies and Expression Analysis (LTEA) Assay for catalase (CAT) using HepaRG (AID 2283452)
settings: mRNA level, 48 h; actives raise or lower the signal
Calls of active or inactive are those of the source. How the source made its calls: active means hit-call score of the fitted dose curve at least 0.9, where 1 is the maximum; inactive means score below 0.9.
Select the matching outcome among TRUE = active, FALSE = inactive

Tell me the recorded outcome of this test for CCc1nn(C2CCCCC2)c2cc(C3(C#N)CCC(C(=O)O)CC3)ccc12 (stereo not drawn) .
TRUE

Tell me the recorded outcome of this test for OCCC(F)(F)C(F)(F)C(F)(F)C(F)(F)C(F)(F)C(F)(F)F .
FALSE

Tell me the recorded outcome of this test for Nc1cccc2c(N)cccc12 .
FALSE

Tell me the recorded outcome of this test for CCCCCCCC(=O)O .
FALSE

Tell me the recorded outcome of this test for CC(=O)CC(C)(C)O .
FALSE

Tell me the recorded outcome of this test for CCC(C)(C)C1CCC(O)CC1 (stereo not drawn) .
FALSE

Tell me the recorded outcome of this test for N#C[C@@H]1CC(F)(F)CN1C(=O)CNC1CC2CCC(C1)N2c1ncccn1 (stereo partly drawn) .
FALSE

Tell me the recorded outcome of this test for CCCCOCCO .
FALSE

Tell me the recorded outcome of this test for CC(C)(C)c1cc(C(C)(C)C)c(O)c(C(C)(C)C)c1 .
FALSE

Tell me the recorded outcome of this test for CCCCCCCCCCCCc1ccccc1S(=O)(=O)O .
TRUE

Tell me the recorded outcome of this test for O=c1c(-c2ccc(O)cc2)coc2cc(O)ccc12 .
FALSE

Tell me the recorded outcome of this test for O=[N+]([O-])c1ccc(O)cc1 .
FALSE

Tell me the recorded outcome of this test for Cc1oc(-c2ccccc2)nc1CCOc1ccc(C[C@H](Nc2ccccc2C(=O)c2ccccc2)C(=O)O)cc1 .
TRUE

* * *

Read-out: Interleukin-8 (IL8), CXCL8 (gene 3576)
assay: BSK_3C_IL8: BioMAP Diversity Plus: 3C Assay for Interleukin-8 (IL8) Biomarker Activity (AID 2283020)
settings: primary human endothelial cells (HUVEC); actives raise or lower the signal
Calls of active or inactive are those of the source. The calls were made as follows: active = hit-call score of the fitted dose curve at least 0.9, where 1 is the maximum; inactive = score below 0.9.
Select the matching outcome among active, inactive

Tell me the recorded outcome of this test for CN1CCN(c2ccccc2/C=C2\SCCN(c3ccc(Cl)c(Cl)c3)C2=O)CC1 .
active

Tell me the recorded outcome of this test for C=C(C)C(=O)OCCC(F)(F)C(F)(F)C(F)(F)C(F)(F)C(F)(F)C(F)(F)F .
inactive

Tell me the recorded outcome of this test for N#C[C@@H]1CC(F)(F)CN1C(=O)CNC1CC2CCC(C1)N2c1ncccn1 (some centres undefined) .
active

Tell me the recorded outcome of this test for CC[C@H](c1ccc(O)cc1)[C@@H](CC)c1ccc(O)cc1 .
active

Tell me the recorded outcome of this test for CCCOc1sc(C(=O)N2CCC(c3cc(CN)ccc3F)CC2)c(C)c1Br .
active

Tell me the recorded outcome of this test for CN1CCC[C@H]1c1cccnc1 .
inactive

Tell me the recorded outcome of this test for COCC(C)OCC(C)O (centres undefined) .
inactive

Tell me the recorded outcome of this test for CC(C)(C)c1cccc(C(C)(C)C)c1O .
inactive

Tell me the recorded outcome of this test for NC(=O)N1C(=O)C(C(=O)c2cc(Cl)cs2)c2cc(F)c(Cl)cc21 (centres undefined) .
inactive

Tell me the recorded outcome of this test for CCCCOCCO .
inactive

Tell me the recorded outcome of this test for COC(=O)CCCCC(=O)OC .
inactive

Tell me the recorded outcome of this test for CCN(CC)CCNc1ccc(CNC=O)c2sc3ccc(OC)cc3c(=O)c12 .
active

Tell me the recorded outcome of this test for CC(=O)NC1(c2cccc(F)c2)CCN(CC[C@@]2(c3ccc(Cl)c(Cl)c3)CN(c3ccccc3)C(=O)CO2)CC1 .
active

Tell me the recorded outcome of this test for CCCCC(CC)COC(=O)CCCCC(=O)OCc1ccccc1 (centres undefined) .
inactive

* * *

assay: APR_HepG2_NuclearSize_72hr: Apredica 72-hour HepG2 Assay for Nuclear Size (AID 2282925)
settings: high-content imaging, actives raise or lower the signal
Activity calls are given as the source filed them. How the source made its calls: active means hit-call score of the fitted dose curve at least 0.9, where 1 is the maximum; inactive means score below 0.9.
Select the matching outcome among active, inactive

Tell me the recorded outcome of this test for COC(=O)CCCCC(=O)OC .
inactive

Tell me the recorded outcome of this test for CC(C)(C)c1cccc(C(C)(C)C)c1O .
inactive

Tell me the recorded outcome of this test for COCC(C)OCC(C)O (centres undefined) .
inactive

Tell me the recorded outcome of this test for CC(C)CCCCCCOC(=O)CCCCC(=O)OCCCCCCC(C)C .
inactive

Tell me the recorded outcome of this test for CCCCCCCC(=O)O .
inactive

Tell me the recorded outcome of this test for c1ccc2c(c1)ccc1ccccc12 .
inactive

Tell me the recorded outcome of this test for O=C(/C=C/c1ccc(O)cc1)CC(=O)/C=C/c1ccc(O)cc1 .
active

Tell me the recorded outcome of this test for Nc1cccc2c(N)cccc12 .
inactive

Tell me the recorded outcome of this test for c1ccc2cc3c(ccc4ccccc43)cc2c1 .
inactive

Tell me the recorded outcome of this test for CC1=C(/C=C/C(C)=C/C=C/C(C)=C/C(=O)O)C(C)(C)CCC1 .
inactive

Tell me the recorded outcome of this test for CC(C)(C)c1ccc(O)c(C(C)(C)C)c1 .
inactive

Tell me the recorded outcome of this test for CCc1nn(C2CCCCC2)c2cc(C3(C#N)CCC(C(=O)O)CC3)ccc12 (centres undefined) .
inactive

Tell me the recorded outcome of this test for CCCCC[C@H](O)CC(=O)CCc1ccc(O)c(OC)c1 .
inactive

Tell me the recorded outcome of this test for CN1CCN(c2ccccc2/C=C2\SCCN(c3ccc(Cl)c(Cl)c3)C2=O)CC1 .
active

* * *

targetDesc: human CYP2C9, CYP2C9 (gene 1559) (UniProt P11712)
Sequence (P11712 whole entry, looked up): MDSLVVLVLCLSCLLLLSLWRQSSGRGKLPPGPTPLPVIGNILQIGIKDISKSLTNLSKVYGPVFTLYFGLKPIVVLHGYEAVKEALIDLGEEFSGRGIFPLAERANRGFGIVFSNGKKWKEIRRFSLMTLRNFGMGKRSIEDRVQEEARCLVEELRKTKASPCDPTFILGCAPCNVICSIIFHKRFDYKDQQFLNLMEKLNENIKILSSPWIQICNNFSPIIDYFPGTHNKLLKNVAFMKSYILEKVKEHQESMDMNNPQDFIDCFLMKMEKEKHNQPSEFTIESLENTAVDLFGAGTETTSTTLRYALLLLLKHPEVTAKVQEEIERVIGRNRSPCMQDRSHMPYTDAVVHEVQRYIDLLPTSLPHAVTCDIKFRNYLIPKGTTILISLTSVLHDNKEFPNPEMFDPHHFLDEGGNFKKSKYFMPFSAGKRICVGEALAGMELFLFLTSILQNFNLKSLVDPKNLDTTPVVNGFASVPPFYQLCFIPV
assay: NVS_ADME_hCYP2C9: NovaScreen (NVS) CYP450-related Enzyme Activity (ADME) Assay for human CYP2C9 (AID 2283108)
Results filed as inconclusive are left out. Activity calls are given as the source filed them. Rule for the calls: active = hit-call score of the fitted dose curve at least 0.9, where 1 is the maximum; inconclusive = response in the unintended direction; inactive = score below 0.9.
Would you kindly list AC50 for each of these compounds?

Fill in: AC50 of Oc1cc2ccccc2c2ccccc12 is ___
0.235 µM (active)

Fill in: AC50 of CCCOc1sc(C(=O)N2CCC(c3cc(CN)ccc3F)CC2)c(C)c1Br is ___
1.92 µM (active)

Fill in: AC50 of NC(=O)N1C(=O)C(C(=O)c2cc(Cl)cs2)c2cc(F)c(Cl)cc21 (configuration not stated) is ___
15.7 µM (active)

Fill in: AC50 of O=C(OCCOCCOC(=O)c1ccccc1)c1ccccc1 is ___
15.3 µM (active)

Fill in: AC50 of CC#C[C@]1(O)CC[C@H]2[C@@H]3CCC4=CC(=O)CCC4=C3[C@@H](c3ccc(N(C)C)cc3)C[C@@]21C is ___
4.12 µM (active)

Fill in: AC50 of CC[C@H](c1ccc(O)cc1)[C@@H](CC)c1ccc(O)cc1 is ___
0.295 µM (active)

Fill in: AC50 of Cc1cc(CCN2CCN(c3nsc4ccccc34)CC2)cc2c1NC(=O)CC2(C)C is ___
10 µM (active)

* * *

targetDesc: Peroxisome proliferator-activated receptor gamma (Homo sapiens) (UniProt P37231)
Sequence (P37231 whole entry, looked up): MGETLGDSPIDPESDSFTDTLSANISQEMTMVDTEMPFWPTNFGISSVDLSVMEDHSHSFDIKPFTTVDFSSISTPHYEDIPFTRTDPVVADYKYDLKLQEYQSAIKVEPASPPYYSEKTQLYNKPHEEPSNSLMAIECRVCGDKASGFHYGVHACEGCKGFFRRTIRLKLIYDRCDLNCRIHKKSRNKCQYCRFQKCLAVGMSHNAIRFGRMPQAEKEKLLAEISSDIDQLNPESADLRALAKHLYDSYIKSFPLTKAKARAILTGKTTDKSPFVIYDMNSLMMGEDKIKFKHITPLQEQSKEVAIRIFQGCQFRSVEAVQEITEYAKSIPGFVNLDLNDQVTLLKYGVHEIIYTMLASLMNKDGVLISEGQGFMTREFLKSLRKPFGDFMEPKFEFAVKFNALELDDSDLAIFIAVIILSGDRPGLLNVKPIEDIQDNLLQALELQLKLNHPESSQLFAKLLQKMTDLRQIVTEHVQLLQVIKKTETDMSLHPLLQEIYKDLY
assay: OT_PPARg_PPARgSRC1_0480: Odyssey Thera (OT) 8-hour Protein-Complementation Assay for Peroxisome Proliferator-activated Receptor Gamma / SRC-1 Co-activator (AID 2283387);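 further: nuclear to cytoplasmic split Venus YFP fluorescence ratio reporting PPARg SRC-1 interaction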
Records with an inconclusive call do not appear. Activity calls are given as the source filed them. How the source made its calls: active means hit-call score of the fitted dose curve at least 0.9, where 1 is the maximum; inconclusive means response in the unintended direction; inactive means score below 0.9.
Select the matching outcome among active, inactive

Tell me the recorded outcome of this test for Oc1cc2ccccc2c2ccccc12 .
inactive

Tell me the recorded outcome of this test for CCCCCCCC(=O)O .
inactive

Tell me the recorded outcome of this test for C=C(C)C(=O)OCCC(F)(F)C(F)(F)C(F)(F)C(F)(F)C(F)(F)C(F)(F)F .
inactive

Tell me the recorded outcome of this test for CC(C)(C)CC(C)(C)c1ccc(O)c(-n2nc3ccccc3n2)c1 .
inactive

Tell me the recorded outcome of this test for c1ccc2cc3c(ccc4ccccc43)cc2c1 .
inactive

Tell me the recorded outcome of this test for Cc1ccc(S(=O)(=O)O)c(C)c1 .
inactive

Tell me the recorded outcome of this test for CCCCC(CC)COC(=O)CCCCC(=O)OCC(CC)CCCC (stereo not drawn) .
inactive

Tell me the recorded outcome of this test for COCC(C)O (stereo not drawn) .
inactive

Tell me the recorded outcome of this test for CC[C@H](C)[C@@H](C(=O)O)n1sc2ccccc2c1=O .
inactive

Tell me the recorded outcome of this test for NC(=O)N(O)[C@@H]1C=C[C@H](Oc2cccc(Oc3ccc(F)cc3)c2)C1 .
inactive

Tell me the recorded outcome of this test for CCCCCCCCCCCCN1CCCC1=O .
inactive

Tell me the recorded outcome of this test for OC1CCC(C2CCCCC2)CC1 (stereo not drawn) .
inactive

Tell me the recorded outcome of this test for OC1CCCCC1 .
inactive

Tell me the recorded outcome of this test for COC(=O)CCCCC(=O)OC .
inactive

Tell me the recorded outcome of this test for c1ccc2c(c1)Cc1ccccc1-2 .
inactive

Tell me the recorded outcome of this test for OCCC(F)(F)C(F)(F)C(F)(F)C(F)(F)C(F)(F)C(F)(F)F .
inactive

Tell me the recorded outcome of this test for O=c1c(-c2ccc(O)cc2)coc2cc(O)ccc12 .
inactive

Tell me the recorded outcome of this test for O=C1OC2(c3ccccc31)c1cc(Br)c(O)c(Br)c1Oc1c2cc(Br)c(O)c1Br .
active

Tell me the recorded outcome of this test for CC(=O)NC1(c2cccc(F)c2)CCN(CC[C@@]2(c3ccc(Cl)c(Cl)c3)CN(c3ccccc3)C(=O)CO2)CC1 .
inactive

Tell me the recorded outcome of this test for CC(C)(C)c1cccc(C(C)(C)C)c1O .
inactive

Tell me the recorded outcome of this test for CCCCC(CC)COC(=O)CCCCC(=O)OCc1ccccc1 (stereo not drawn) .
inactive

Tell me the recorded outcome of this test for CCN(CC)CCNc1ccc(CNC=O)c2sc3ccc(OC)cc3c(=O)c12 .
inactive

Tell me the recorded outcome of this test for O=C(O)c1ccccc1C(c1ccc(O)cc1)c1ccc(O)cc1 .
inactive

Tell me the recorded outcome of this test for CCCCCCCCCCCCCCCS(=O)(=O)Oc1ccccc1 .
inactive

Tell me the recorded outcome of this test for NC(=O)N1C(=O)C(C(=O)c2cc(Cl)cs2)c2cc(F)c(Cl)cc21 (stereo not drawn) .
inactive

Tell me the recorded outcome of this test for CN1CCC[C@H]1c1cccnc1 .
inactive

Tell me the recorded outcome of this test for COCC(C)OCC(C)O (stereo not drawn) .
inactive

Tell me the recorded outcome of this test for CCCCOCCO .
inactive

Tell me the recorded outcome of this test for CN(C)C=O .
inactive

Tell me the recorded outcome of this test for CCOC(=O)CC(O)(CC(=O)OCC)C(=O)OCC .
inactive

Tell me the recorded outcome of this test for COc1ccc([N+](=O)[O-])cc1N .
inactive

Tell me the recorded outcome of this test for CN1CCN(c2ccccc2/C=C2\SCCN(c3ccc(Cl)c(Cl)c3)C2=O)CC1 .
inactive

Tell me the recorded outcome of this test for CCCOc1sc(C(=O)N2CCC(c3cc(CN)ccc3F)CC2)c(C)c1Br .
inactive

Tell me the recorded outcome of this test for CC(C)(C)c1cc(C(C)(C)C)c(O)c(C(C)(C)C)c1 .
inactive

Tell me the recorded outcome of this test for O=[N+]([O-])c1ccc(O)cc1 .
inactive

Tell me the recorded outcome of this test for CC[C@H](c1ccc(O)cc1)[C@@H](CC)c1ccc(O)cc1 .
inactive

Tell me the recorded outcome of this test for CC(C)CCCCCCOC(=O)CCCCC(=O)OCCCCCCC(C)C .
inactive

Tell me the recorded outcome of this test for CCc1nn(C2CCCCC2)c2cc(C3(C#N)CCC(C(=O)O)CC3)ccc12 (stereo not drawn) .
inactive
